system: ACHN renal; experiment: NCI-60 one-dose screen, 48 h (100 = growth as untreated, 0 = no growth, -100 = all killed); settings: 10 µM unless noted
This is part of a sample that, as a whole, favours compounds with a hit. Of some 83,000 tested, about 20% had one in any assay.
Property: growth; scope: individual compounds
Please state the figure in %; there is no need to write the unit.

Answered cases to consult:
COMPOUND	growth (%)
N/C(=N\c1nc2c(Cl)cccc2s1)C(Cl)(Cl)Cl	19.6
O=C(NNc1nc2cc(F)c(F)cc2n2cccc12)c1ccncn1	14.1

Could you now consider this next compound?
Recorded growth of COCCC[C@H]1O[C@@](O)([C@H](C)[C@@H]2CC(OC)C(O)/C=C(C)/C=C(C)/C=C(\C)C(OC3O[C@@H](C)[C@H](O)C(O)[C@@H]3O)C(C)/C=C(C)/C=C(OC)/C=C(\C)C(=O)O2)C(OC)C(O)[C@]1(C)O[C@H]1C[C@@H](O)[C@H](O[C@H]2C[C@](C)(O)[C@H](O)C(C)O2)C(C)O1 (stereo partly drawn) , please.
67.7
